Endpoint: melting point (°C)
Numeric answer only, unit °C assumed.

Molecule: COc1cccc(NCc2ccccc2O)n1
melting point / °C: 103

For this molecule ( CSc1cccc(NCc2ccccc2O)n1 ), measured melting point is 61

For this molecule ( COc1nccc(NCc2ccccc2O)n1 ), measured melting point is 161

For this molecule ( C[S+]([O-])c1cccc(NCc2ccccc2O)n1 (stereo not drawn) ), measured melting point is 133

For this molecule ( COc1cncc(NCc2ccccc2O)n1 ), measured melting point is 158

For this molecule ( Oc1ccccc1CNc1cncc(Br)n1 ), measured melting point is 168
